Assign Ratio Aβ(total)/Aβ42 (Aβ total IC50/Aβ42 IC50) to each entry below.
- System: Aβ42
- Measurement description: Aβ42 production in H4 neuroglioma cells stably expressing human APP695 (Meso Scale Discovery electrochemiluminescence assay)
- Assay type: cell-based
- Experimental parameters: higher ratio = more specific inhibition of Aβ42 over Aβ total
- Procedure: Cells were plated out to near confluency. The compounds to be tested were received as 10 mM stocks in 100% DMSO. […] Aβ42 as well as Aβ total levels were then measured post-incubation from the supernatant of the cells. Aβ42 levels were determined using a specific electrochemiluminescence assay provided by Meso Scale Discovery (Catalog #L21CA-1) according to the manufacturer's protocol. […]

* COc1cc(Nc2ncc3c(n2)N(C)C2(CCOCC2)C(=O)N3)ccc1-n1cnc(C)c1 [Example 9] | >101
* COc1cc(Nc2nc3c(c(C(C)(C)O)n2)N(C)C(=O)C2(CCOC2)N3C)ccc1-c1cnc(C)o1 (stereo not drawn) [Example 40] | >62

Proceeding to the next compound to report its Ratio Aβ(total)/Aβ42 (Aβ total IC50/Aβ42 IC50).
Task: Requested read-out: Ratio Aβ(total)/Aβ42 (Aβ total IC50/Aβ42 IC50). Entry: COc1cc(Nc2ncc3c(n2)N(C)C2(CCOC2)C(=O)N3C)ccc1-n1cnc(C)c1 (stereo not drawn) [Example 6]
Output: >136

Value source: patent US8865716B2
